Experiment: self-splicing fitness, log relative to wild type (ln ratio); higher = more splicing; Tetrahymena group I intron in knt gene, E. coli kanamycin selection, DiMSum; sequences stand for … in CUCUCU…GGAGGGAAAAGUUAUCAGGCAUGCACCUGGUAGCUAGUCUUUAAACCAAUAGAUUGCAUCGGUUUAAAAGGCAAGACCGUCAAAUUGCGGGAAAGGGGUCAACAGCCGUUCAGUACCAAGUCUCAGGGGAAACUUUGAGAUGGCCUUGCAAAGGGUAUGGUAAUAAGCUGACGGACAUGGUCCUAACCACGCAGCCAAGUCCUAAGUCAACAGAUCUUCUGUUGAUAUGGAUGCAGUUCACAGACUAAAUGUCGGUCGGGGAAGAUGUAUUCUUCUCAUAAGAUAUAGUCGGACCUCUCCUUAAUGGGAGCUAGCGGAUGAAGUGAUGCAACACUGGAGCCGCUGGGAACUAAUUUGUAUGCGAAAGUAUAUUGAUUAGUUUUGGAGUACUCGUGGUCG;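 note: selection with 25 µg/mL kanamycin versus none on LB agar overnight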
Conditions: 37 °C
self-splicing fitness (ln): recorded values

Please report the measured self-splicing fitness (ln) for UAGUAGCAAUAUUACGGCGU -1.2

Output self-splicing fitness (ln) of GCGCAGCAAUAUUACGAGCG -2.26

Specify reported self-splicing fitness (ln) for the sequence shown: CAUGAGCAAUAUUACGUUGU -3.57

Provide only the value of recorded self-splicing fitness (ln) for GGUUAGCAAUAUUACGAGAG -2.45

Identify the reported self-splicing fitness (ln) for the following entry. CCUAAGCAAUAUUACGGUAC -2.17

Annotate the sequence CGUUAGCAAUAUUACGGCAA with its measured self-splicing fitness (ln). -1.1

New cases:
State, in one line, measured self-splicing fitness (ln) of CGCCAGCAAUAUUACGAGAG -1.37

Tell us which self-splicing fitness (ln) value is on record for GUGAAGCAAUAUUACGUCUG -0.0242

Quote self-splicing fitness (ln) reported for ACAUAGCAAUAUUACGACAG please. -0.508

Determine its reported self-splicing fitness (ln): CCUUAGCAAUAUUACGCCCG -1.49

Note down self-splicing fitness (ln) recorded for UGAUAGCAAUAUUACGCUAU -2.04

Answer with the recorded self-splicing fitness (ln) of GACUAGCAAUAUUACGCUAU only. -3.22

Supply measured self-splicing fitness (ln) of UACUAGCAAUAUUACGUAAG in your reply. -3.07

Read the entry GUUGAGCAAUAUUACGGUCC and write its reported self-splicing fitness (ln). -1.3

Supply reported self-splicing fitness (ln) belonging to this sequence: UCUCAGCAAUAUUACGUCUC -3

Identify measured self-splicing fitness (ln) corresponding to GUCUAGCAAUAUUACGGUUU -0.192

---

Assay: self-splicing fitness, log relative to wild type (ln ratio); higher = more splicing; Tetrahymena group I intron in knt gene, E. coli kanamycin selection, DiMSum; sequences stand for … in CUCUCU…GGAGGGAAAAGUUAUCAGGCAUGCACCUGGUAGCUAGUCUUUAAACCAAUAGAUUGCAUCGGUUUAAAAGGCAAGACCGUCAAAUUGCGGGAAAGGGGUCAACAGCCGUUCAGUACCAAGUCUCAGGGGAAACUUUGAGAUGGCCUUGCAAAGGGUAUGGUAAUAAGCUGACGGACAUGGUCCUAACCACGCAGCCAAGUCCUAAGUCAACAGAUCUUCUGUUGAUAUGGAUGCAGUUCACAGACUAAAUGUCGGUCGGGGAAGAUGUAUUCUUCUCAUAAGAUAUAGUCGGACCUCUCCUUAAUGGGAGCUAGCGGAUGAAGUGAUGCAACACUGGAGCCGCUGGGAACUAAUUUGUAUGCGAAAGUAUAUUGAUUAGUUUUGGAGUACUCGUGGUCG
Settings: 37 °C
observed.property: self-splicing fitness (ln)
Write no unit; give the number alone.

Answered examples (5):
Supply self-splicing fitness (ln) value. Item: UUACAGCAAUAUUACGCGCU -2.04

Respond only with self-splicing fitness (ln) recorded for AGCUAGCAAUAUUACGAGUC -2.08

In one line, give reported self-splicing fitness (ln) of the entry CUUAAGCAAUAUUACGUGCU . -2.1

Tell me its self-splicing fitness (ln) given CUGCAGCAAUAUUACGGUUU as the entry. -1.43

Look up self-splicing fitness (ln) of AGCCAGCAAUAUUACGGCUA and report it. -0.727

More entries:
Input GCCCAGCAAUAUUACGCUCG , output reported self-splicing fitness (ln). -2.34

Entry UCCGAGCAAUAUUACGGCGA needs its self-splicing fitness (ln) filled in; supply it. -0.0341

Given the sequence CACAAGCAAUAUUACGUCCU , write its reported self-splicing fitness (ln). -1.05

Return reported self-splicing fitness (ln). Input sequence: CCUCAGCAAUAUUACGGCAG -1.15

---

Experiment: self-splicing fitness, log relative to wild type (ln ratio); higher = more splicing; Tetrahymena group I intron in knt gene, E. coli kanamycin selection, DiMSum; sequences stand for … in CUCUCU…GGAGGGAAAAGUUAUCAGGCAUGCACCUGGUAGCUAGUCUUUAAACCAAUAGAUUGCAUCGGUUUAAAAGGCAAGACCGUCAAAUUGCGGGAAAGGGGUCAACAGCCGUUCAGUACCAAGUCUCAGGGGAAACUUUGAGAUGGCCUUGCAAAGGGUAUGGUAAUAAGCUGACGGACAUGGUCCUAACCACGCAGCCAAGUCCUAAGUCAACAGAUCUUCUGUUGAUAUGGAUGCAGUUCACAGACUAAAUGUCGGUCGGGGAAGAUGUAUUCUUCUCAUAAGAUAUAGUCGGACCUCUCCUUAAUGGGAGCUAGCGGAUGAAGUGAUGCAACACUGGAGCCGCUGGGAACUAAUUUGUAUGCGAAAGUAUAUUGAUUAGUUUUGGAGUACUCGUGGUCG
Conditions: 30 °C
Returns y if the recorded self-splicing fitness (ln) is greater than or equal to -3, and n otherwise.

Check if self-splicing fitness (ln) >= -3 (inclusive). Item: CGAGAGCAAUAUUACGUUUC y

More entries:
Would you say GUGUAGCAAUAUUACGAUGA shows self-splicing fitness (ln) at minimum -3? y

Tell me whether self-splicing fitness (ln) is at least -3 here: UGGCAGCAAUAUUACGUGGG y

Please check the record GACCAGCAAUAUUACGCACA and state if its self-splicing fitness (ln) is at or above -3. y

# check: self-splicing fitness (ln) of AAAAAGCAAUAUUACGAUUA is greater than or equal to -3 y

Test whether the sequence UCCAAGCAAUAUUACGCGUU records self-splicing fitness (ln) of -3 or higher. n

Please check the record AUCAAGCAAUAUUACGCGCG and state if its self-splicing fitness (ln) is at or above -3. y

Reported self-splicing fitness (ln) reaches at least -3 for GCGCAGCAAUAUUACGGCAA ? y

Assess whether reported self-splicing fitness (ln) for GAUUAGCAAUAUUACGCGAA sits at -3 or higher. n

Assess whether reported self-splicing fitness (ln) for CACAAGCAAUAUUACGCCUU sits at -3 or higher. n

---

self-splicing fitness (ln) values, listed per item
Assay: self-splicing fitness, log relative to wild type (ln ratio); higher = more splicing; Tetrahymena group I intron in knt gene, E. coli kanamycin selection, DiMSum; sequences stand for … in CUCUCU…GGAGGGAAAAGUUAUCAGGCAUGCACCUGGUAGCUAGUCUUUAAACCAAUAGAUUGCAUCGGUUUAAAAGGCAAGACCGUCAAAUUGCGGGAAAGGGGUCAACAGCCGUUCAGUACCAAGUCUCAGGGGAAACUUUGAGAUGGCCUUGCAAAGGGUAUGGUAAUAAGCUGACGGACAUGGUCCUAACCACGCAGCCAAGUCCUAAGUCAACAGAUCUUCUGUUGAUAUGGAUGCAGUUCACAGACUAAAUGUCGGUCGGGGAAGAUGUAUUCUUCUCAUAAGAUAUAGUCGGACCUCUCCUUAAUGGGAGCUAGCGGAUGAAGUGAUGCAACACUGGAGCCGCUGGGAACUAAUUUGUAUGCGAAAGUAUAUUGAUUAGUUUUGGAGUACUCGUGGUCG
Conditions: 37 °C
Enter a number only.

Example sequences with recorded self-splicing fitness (ln):
Fill in self-splicing fitness (ln) for record AGCUAGCAAUAUUACGAGAG -3.13

Quote self-splicing fitness (ln) reported for AUGAAGCAAUAUUACGUAGC please. -1.45

Indicate its recorded self-splicing fitness (ln); the sequence in question is UCUCAGCAAUAUUACGCAUG -1.04

Please look at this sequence and report its self-splicing fitness (ln): GUUAAGCAAUAUUACGGAGG -1.56

Give self-splicing fitness (ln) for GGCAAGCAAUAUUACGGGCU -2.48

Give the measured self-splicing fitness (ln) for GCCGAGCAAUAUUACGAGAG -0.44

New cases:
Let me know recorded self-splicing fitness (ln) for GUCAAGCAAUAUUACGCUGG , thanks. -3.72

Let me know recorded self-splicing fitness (ln) for CCCCAGCAAUAUUACGCCGA , thanks. -2.04

Given the sequence AGGUAGCAAUAUUACGAGGA , write its reported self-splicing fitness (ln). -2.43

Note self-splicing fitness (ln) for the sequence shown: CAGUAGCAAUAUUACGGGCA -2.35

Could you please provide reported self-splicing fitness (ln) for UCCGAGCAAUAUUACGGGGA ? Thanks! -0.603

Quote self-splicing fitness (ln) reported for GUCAAGCAAUAUUACGAAUC please. -0.596

Given AGUCAGCAAUAUUACGCCAC , respond with its self-splicing fitness (ln). -3.11

Annotate the sequence UCAGAGCAAUAUUACGUCUU with its measured self-splicing fitness (ln). -2.53

Provide only the value of recorded self-splicing fitness (ln) for AAUCAGCAAUAUUACGUAUA 0.0946

Answer with the recorded self-splicing fitness (ln) of GCCUAGCAAUAUUACGCCUC only. 0.175

Give the value of self-splicing fitness (ln) reported for the following: UAUAAGCAAUAUUACGGCGA -0.427
